assay-explanation: ATG_NFI_CIS: Attagene CIS-FACTORIAL HepG2 Assay for human Nuclear Factor I (NFI) (AID 2282989)
run-conditions: HepG2 cis-regulatory reporter, NFI response element transcription; actives raise or lower the signal
Calls of active or inactive are those of the source. The calls were made as follows: active = hit-call score of the fitted dose curve at least 0.9, where 1 is the maximum; inactive = score below 0.9.
Classes to choose from: active, inactive

Record excerpt, results attached:
O=C(O)C(Cl)(Cl)Cl; inactive
CC(=O)C=C(C)C; inactive
ClCc1cccnc1; active
Nc1ncc([N+](=O)[O-])s1; inactive
CCOP(=S)(OCC)SCCS(=O)(=O)CC; inactive
Nc1ccc(Cl)cc1C(=O)c1ccccc1; inactive
Oc1ccc(-c2ccccc2)cc1; inactive
O=C(OC1CCCCC1)c1ccccc1C(=O)OC1CCCCC1; inactive
BrCCBr; inactive
CC1CN1P(=O)(N1CC1C)N1CC1C (stereo unspecified); inactive

Dear colleague, could you share the recorded outcome for Cc1cc(=O)[nH]o1 when you have a moment?
inactive

Dear colleague, could you share the recorded outcome for CC(C)(c1ccccc1)c1ccc(O)c(C(C)(C)c2ccccc2)c1 when you have a moment?
active

Dear colleague, could you share the recorded outcome for CCOC(=O)CP(=O)(OCC)OCC when you have a moment?
inactive

Dear colleague, could you share the recorded outcome for CC1(C)Cc2cccc(O)c2O1 when you have a moment?
inactive

Dear colleague, could you share the recorded outcome for Nc1cccc(Cl)c1 when you have a moment?
inactive

Dear colleague, could you share the recorded outcome for Cc1ccccc1C(=O)Nc1cccc(OC(C)C)c1 when you have a moment?
inactive
